Hi there, I'd appreciate the recorded GPI/LMMP SP antagonist Ke for every entry that follows.
# targetSystem: guinea pig NK1 receptor (guinea pig, UniProt P30547 1-407)
# Sequence (P30547 whole entry): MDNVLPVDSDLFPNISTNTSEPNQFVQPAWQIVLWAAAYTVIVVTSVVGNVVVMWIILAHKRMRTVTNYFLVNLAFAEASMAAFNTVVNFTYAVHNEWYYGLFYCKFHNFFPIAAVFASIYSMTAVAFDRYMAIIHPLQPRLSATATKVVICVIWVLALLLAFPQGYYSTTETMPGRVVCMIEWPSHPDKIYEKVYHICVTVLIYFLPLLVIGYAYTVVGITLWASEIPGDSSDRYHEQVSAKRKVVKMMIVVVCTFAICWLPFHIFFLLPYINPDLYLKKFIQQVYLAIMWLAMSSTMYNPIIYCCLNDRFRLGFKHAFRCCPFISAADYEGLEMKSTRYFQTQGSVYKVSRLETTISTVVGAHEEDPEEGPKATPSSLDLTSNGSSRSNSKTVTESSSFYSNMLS
# measurementDescription: cell-based or functional assay
Square brackets hold non-standard residues; d marks the D form. Ends that are not written are not given here. * marks the point of attachment. Glc = O-glucosyl on Ser side chain (Ser(OGlu)/Ser(OGlc)); NH(3,5-(CF3)2-benzyl) = FC(F)(F)c1cc(CN*)cc(C(F)(F)F)c1; NH‑Bn(CF3)2 = C-terminal Bn(CF3)2 amide; Dmt = Cc1cc(O)cc(C)c1C[C@H](N)C(=O)O; Nle = CCCC[C@H](N)C(=O)O
Answer as a quantity: numeral, then unit.

Record excerpt, results attached:
Y[dA]GF[Nle]PS(Glc)W-{NH‑Bn(CF3)2} [TyrDAlaGlyPheNleProSer(OGlu)TrpNHBn(CF3)2 (TY041)]
1.8 nM
[Dmt][dA]GFMPLW-{NH(3,5-(CF3)2-benzyl)} [DmtDAlaGlyPheMetProLeuTrpNHBn(CF3)2 (TY032)]
7.5 nM
YAGFMPLW (D-Ala at 2; Met(O) (oxidized methionine) at 5; C-terminal O-3,5-Bn(CF3)2 ester) [TyrDAlaGlyPheMet(O)ProLeuTrpOBn(CF3)2 (TY023)]
7.8 nM

Supply measured GPI/LMMP SP antagonist Ke of YAGFXPLW (D-Ala at 2; Nle (norleucine) at 5 (X); C-terminal O-3,5-Bn(CF3)2 ester) [TyrDAlaGlyPheNleProLeuTrpOBn(CF3)2 (TY018)] in your reply.
7.93 nM
